Biological target: α-mannosidase (Jack bean) (Canavalia ensiformis)
Construct: purchased Sigma-Aldrich Co. LLC. lot; 055K7047 (catalogue number not given)
Sequence (C0HJB3 whole entry): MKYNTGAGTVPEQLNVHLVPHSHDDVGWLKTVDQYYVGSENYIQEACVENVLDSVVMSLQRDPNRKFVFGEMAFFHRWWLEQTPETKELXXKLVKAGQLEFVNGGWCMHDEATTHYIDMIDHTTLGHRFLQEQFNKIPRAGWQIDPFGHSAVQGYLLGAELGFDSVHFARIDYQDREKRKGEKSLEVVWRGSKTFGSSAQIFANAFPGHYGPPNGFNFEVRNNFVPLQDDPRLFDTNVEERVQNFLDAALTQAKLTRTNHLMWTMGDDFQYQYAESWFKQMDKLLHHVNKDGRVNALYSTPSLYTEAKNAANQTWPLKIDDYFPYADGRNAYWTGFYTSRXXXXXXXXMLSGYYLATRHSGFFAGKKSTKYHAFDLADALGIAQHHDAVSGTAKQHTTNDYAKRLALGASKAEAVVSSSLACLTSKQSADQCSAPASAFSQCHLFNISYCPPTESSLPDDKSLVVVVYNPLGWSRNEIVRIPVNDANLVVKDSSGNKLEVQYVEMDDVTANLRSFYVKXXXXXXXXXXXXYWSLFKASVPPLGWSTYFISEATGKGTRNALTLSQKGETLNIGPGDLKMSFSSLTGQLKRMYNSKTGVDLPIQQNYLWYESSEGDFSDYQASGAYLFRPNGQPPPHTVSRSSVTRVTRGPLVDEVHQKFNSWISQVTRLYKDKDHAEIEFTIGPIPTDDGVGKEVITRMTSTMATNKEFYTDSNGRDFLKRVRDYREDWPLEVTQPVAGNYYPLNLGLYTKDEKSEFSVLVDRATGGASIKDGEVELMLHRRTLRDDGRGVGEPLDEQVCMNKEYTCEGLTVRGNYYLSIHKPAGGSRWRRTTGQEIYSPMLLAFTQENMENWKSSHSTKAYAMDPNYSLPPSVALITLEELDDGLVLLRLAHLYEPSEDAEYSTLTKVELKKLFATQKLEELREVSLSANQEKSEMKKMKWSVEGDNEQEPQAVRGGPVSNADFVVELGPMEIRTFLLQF
Test: α-mannosidase inhibition assay (p-nitrophenyl α-D-mannopyranoside substrate)
Format: biochemical
Settings: Jack bean enzyme; NI = no inhibition
MEASURED PARAMETER: IC50

Find the recorded IC50 belonging to COC(=O)C1=C[C@@H](O)[C@@H](O)[C@@H](O[C@H]2C(C(=O)OC)=C[C@@H](O)[C@@H](O)[C@@H]2O)[C@@H]1Cl [(−)-23] and report it. > 10 mM

So what does the record say about IC50 for COC(=O)C1=C[C@@H](O)[C@@H](O)[C@@H](O[C@@H]2C(C(=O)OC)=C[C@H](O)[C@H](O)[C@@H]2O)[C@@H]1Cl [(−)-pericosine E (6)] ? > 10 mM

Which IC50 value belongs to COC(=O)C1=C[C@H](O)[C@H](O)[C@H](O)[C@@H]1O[C@H]1[C@@H](O)[C@@H](O)C=C(C(=O)OC)[C@@H]1Cl [(+)-22] ? > 10 mM
